Assay Info: in vitro
Settings: kidney or brush border membranes
*1 amine or outer side, *2 acyl side, *3 side chain or, on linkers, in order; H or OH if unused. Where a SMILES comes first, the peptide text is derived from it. Bridges are numbered along the chain shown (N, C = ends). [ ]: non-standard residue; d: D form. Phe(Nα-CH2CH2CO) = O=C([C@H](Cc1ccccc1)N(CCC(=O)[*:3])[*:1])[*:2]
Entries annotated with measured remaining at 3 h
Kindly report the value followed by its unit.

Use the examples below as a reference point.
compound=NCCCC[C@H]1NC(=O)[C@@H](Cc2c[nH]c3ccccc23)NC(=O)[C@H](Cc2ccccc2)NC(=O)[C@H](Cc2ccccc2)NC(=O)[C@H](Cc2ccccc2)NCC(=O)NCCN([C@@H](Cc2ccccc2)C(N)=O)C1=O reading=100%
compound="C[C@H](N)C(=O)NCC(=O)N[C@H]1CSSC[C@@H](C(=O)O)NC(=O)[C@H](CO)NC(=O)[C@H]([C@@H](C)O)NC(=O)[C@H](Cc2ccccc2)NC(=O)[C@H]([C@@H](C)O)NC(=O)[C@H](CCCCN)NC(=O)[C@H](Cc2c[nH]c3ccccc23)NC(=O)[C@H](Cc2ccccc2)NC(=O)[C@H](Cc2ccccc2)NC(=O)[C@H](CC(N)=O)NC(=O)[C@H](CCCCN)NC1=O [SRIF, reference compound]" reading=0%
compound="NCCCC[C@H]1NC(=O)[C@@H](Cc2c[nH]c3ccccc23)NC(=O)[C@H](Cc2ccccc2)NC(=O)[C@H](Cc2ccccc2)NC(=O)[C@H](Cc2ccccc2)NC(=O)CCN([C@@H](Cc2ccccc2)C(N)=O)C1=O [PTR 3171, Phe*-Phe-Phe-(D)Trp-(D)Lys-Phe(C2)-X] (FFF[dW][dK][Phe(Nα-CH2CH2CO)]-NH2; lactam N-6)" reading=100%
compound="C[C@@H](O)[C@@H]1NC(=O)[C@H](CCCCN)NC(=O)[C@@H](Cc2c[nH]c3ccccc23)NC(=O)[C@H](Cc2ccccc2)NC(=O)[C@@H](NC(=O)[C@H](N)Cc2ccccc2)CSSC[C@@H](C(=O)N[C@H](CO)[C@@H](C)O)NC1=O [Octreotide]" reading=100%
compound=NCCCC[C@@H]1NC(=O)[C@@H](Cc2c[nH]c3ccccc23)NC(=O)[C@H](Cc2ccccc2)NC(=O)[C@H](Cc2ccccc2)NC(=O)[C@H](Cc2ccccc2)NCC(=O)NCCN([C@@H](Cc2ccccc2)C(N)=O)C1=O reading=100%

Consider the record given below.
Entry C[C@@H](O)[C@@H]1NC(=O)[C@H](CCCCN)NC(=O)[C@@H](Cc2c[nH]c3ccccc23)NC(=O)[C@H](Cc2c[nH]c3ccccc23)NC(=O)[C@H](Cc2ccccc2)NC(=O)CCCNC(=O)CCCN(CC(N)=O)C(=O)[C@H](Cc2ccccc2)NC1=O : reported remaining at 3 h = ?
100%

Values were extracted from patent US6930088B2.
